Biological target: F508delCFTR (Homo sapiens, UniProt P13569, DEL508-508)
Construct: expressed in transfected cells; host or cells: CFBE41o- human lung derived epithelial cells (CFBE41o-F508delCFTR-HRP), doxycycline-inducible
Sequence (P13569 with tags, fused parts or gaps DEL508-508): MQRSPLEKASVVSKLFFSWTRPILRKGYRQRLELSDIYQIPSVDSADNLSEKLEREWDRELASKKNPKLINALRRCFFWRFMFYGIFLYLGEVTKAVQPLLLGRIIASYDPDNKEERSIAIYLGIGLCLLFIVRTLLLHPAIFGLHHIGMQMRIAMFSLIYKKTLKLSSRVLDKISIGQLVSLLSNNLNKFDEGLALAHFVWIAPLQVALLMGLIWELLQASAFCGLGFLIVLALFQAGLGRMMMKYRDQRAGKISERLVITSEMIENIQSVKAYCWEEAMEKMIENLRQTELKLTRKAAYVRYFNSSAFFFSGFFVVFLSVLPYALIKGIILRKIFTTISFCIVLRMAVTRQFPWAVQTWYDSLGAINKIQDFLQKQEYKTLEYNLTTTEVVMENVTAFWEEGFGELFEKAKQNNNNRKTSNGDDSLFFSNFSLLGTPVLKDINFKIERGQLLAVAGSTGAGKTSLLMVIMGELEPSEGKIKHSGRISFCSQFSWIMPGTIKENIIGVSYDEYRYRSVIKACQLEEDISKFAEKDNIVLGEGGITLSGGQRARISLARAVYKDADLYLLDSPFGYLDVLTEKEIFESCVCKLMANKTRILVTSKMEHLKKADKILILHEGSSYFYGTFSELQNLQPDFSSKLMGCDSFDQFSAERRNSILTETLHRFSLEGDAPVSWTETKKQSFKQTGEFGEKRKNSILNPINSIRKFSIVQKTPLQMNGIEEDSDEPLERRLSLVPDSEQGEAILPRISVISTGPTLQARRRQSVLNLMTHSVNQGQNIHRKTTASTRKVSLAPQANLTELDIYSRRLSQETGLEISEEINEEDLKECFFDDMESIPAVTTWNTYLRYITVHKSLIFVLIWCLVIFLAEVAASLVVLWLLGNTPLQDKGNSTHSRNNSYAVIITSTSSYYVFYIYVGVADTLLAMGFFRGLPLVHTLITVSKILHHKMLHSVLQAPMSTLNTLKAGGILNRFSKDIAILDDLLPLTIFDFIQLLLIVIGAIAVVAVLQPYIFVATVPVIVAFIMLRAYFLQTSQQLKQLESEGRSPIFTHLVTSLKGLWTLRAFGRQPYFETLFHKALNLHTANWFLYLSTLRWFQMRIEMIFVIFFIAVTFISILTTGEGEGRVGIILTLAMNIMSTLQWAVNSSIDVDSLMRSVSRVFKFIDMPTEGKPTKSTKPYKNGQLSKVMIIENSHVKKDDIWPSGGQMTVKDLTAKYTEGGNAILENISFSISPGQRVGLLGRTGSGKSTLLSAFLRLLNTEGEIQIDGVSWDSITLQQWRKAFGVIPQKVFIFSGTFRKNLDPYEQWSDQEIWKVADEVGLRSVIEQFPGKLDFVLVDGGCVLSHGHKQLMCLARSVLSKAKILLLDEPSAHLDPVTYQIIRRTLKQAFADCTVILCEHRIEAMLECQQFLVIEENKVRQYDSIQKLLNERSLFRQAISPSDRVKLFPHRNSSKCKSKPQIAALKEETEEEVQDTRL
Assay: Cell Surface Expression-Horse Radish Peroxidase (CSE-HRP) Assay
Format: cell-based
Settings: test compound with co-corrector; maximum at any tested concentration
valueType: Maximum % activity (with co-corrector)

1) CC(C)Oc1ncc(C2CCC2)cc1C1(C(=O)NS(=O)(=O)c2cccc3c2CCCN3)CC1 [GII-25] :: +++ (≥350)
2) COc1cc(C)c(C2(C(=O)NS(=O)(=O)c3cccc4ncccc34)CC2)cn1 [GII-23] :: ++ (≥150 and <350)
3) CCc1cnc(N2CCCC2)c(C2(C(=O)NS(=O)(=O)c3cccc4nc(C)ccc34)CC2)c1 [GII-31] :: +++ (≥350)
4) CCc1cnc(OCCOC)c(C2(C(=O)NS(=O)(=O)c3cccc4nc(C)ccc34)CC2)c1 [GII-56] :: +++ (≥350)
5) O=C(NS(=O)(=O)c1cccc2ccccc12)C1(c2cc(Cl)cnc2C(F)(F)F)CC1 [GII-5] :: ++ (≥150 and <350)

Any idea what its Maximum % activity (with co-corrector) is? The compound is CC(C)COc1ccc(OC(C)C)c(C2(C(=O)NS(=O)(=O)c3cccc4ncccc34)CC2)n1 [Example GI-86]
+++ (≥350)

Quick check: Maximum % activity (with co-corrector) of COc1cnc(OCC(C)C)c(C2(C(=O)NS(=O)(=O)c3cccc4nc(C)ccc34)CC2)c1 [Example GI-79] ?
+++ (≥350)
